test system: Protease XXIII; test: Homogeneous aqueous enzymatic resolution (ester hydrolysis) with enzyme A; type: biochemical, Aspergillus oryzae; conditions: 10.0 mmol ester in 100 ml 0.2 M phosphate buffer pH 7.0, 100 mg enzyme A, 20-22 °C, 20 hours
Measurement name: % CONVERSION (%)

P = CC(C)Cc1ccc(C(C)C(=O)OCCCCS(=O)(=O)O)cc1 (racemic)
Q = CC(C)Cc1ccc(C(C)C(=O)OCC[N+](C)(C)C)cc1 (racemic)
### Prompt Compare P and Q by numeric % CONVERSION and name the larger one. Kindly state the label of the option you pick.
### Response P
(P: 43.2%, Q: 30.1%)

a = CC(C)Cc1ccc(C(C)C(=O)OCCCOS(=O)(=O)O)cc1 (racemic)
b = CC(C)Cc1ccc(C(C)C(=O)OCCCS(=O)(=O)O)cc1 (racemic)
### Prompt Field: lower % CONVERSION | Options: a / b Kindly state the label of the option you pick.
### Response a
(a: 24.3%, b: 50.0%)
